# credit: the supplement of paper PMC12613149

Test: collision cross section (TIMS, N2 drift gas) of the primary ion; higher = larger gas-phase ion size
Conditions: ionization mode: ESI+; ion species: [M+H]+
PROPERTY NAME: collision cross section (Å²)
Give the value, in units of Å², as a plain number.

Q) Return reported collision cross section. Input molecule: Cc1cccc(C)c1N(Cn1cccn1)C(=O)CS(C)=O (centres undefined) [Metazachlor BH 479-11]
A) 163.01

Q) Tell me collision cross section reported for CC(CCc1ccccc1)NCC(O)c1ccc(O)c(C(N)=O)c1 (centres undefined) [Labetalol]
A) 176.34

Q) Give the value of collision cross section reported for the following: O=C(O)c1ccccc1C(=O)OCc1ccccc1 [Monobenzyl phthalate]
A) 155.89

Q) // fetch collision cross section given entry CCN(CC)c1ccccc1 [Diethylphenylamine]
A) 129.02

Q) Note collision cross section for the molecule shown: COc1ccc([C@@H]2Sc3ccccc3N(CCN(C)C)C(=O)[C@@H]2OC(C)=O)cc1 [Diltiazem]
A) 198.45

Q) Specify collision cross section for Cc1nc(=O)c(-c2ccccc2)n[nH]1 [Metamitron-desamino] and stop.
A) 139.91

Q) In one line, give reported collision cross section of the entry Cn1cnc2c1c(=O)[nH]c(=O)n2C [Theobromine] .
A) 130.33

Q) For CCc1cccc(C)c1N(C(=O)CCl)C(C)COC (centres undefined) [Metolachlor] , write its collision cross section.
A) 160.17

Q) Query collision cross section for O=C1Nc2ccc(Cl)cc2C(C#CC2CC2)(C(F)(F)F)O1 (centres undefined) [Efavirenz]
A) 168.93

Q) Name the recorded collision cross section of the item Cc1ncc([N+](=O)[O-])n1CCO [Metronidazole] in your answer.
A) 132.43

Q) Give reported collision cross section value for O=P(Oc1ccccc1)(Oc1ccccc1)Oc1ccccc1 [Triphenylphosphate]
A) 172.48

Q) Give me measured collision cross section, please, for this molecule: C/N=C(/NCC1CCOC1)N[N+](=O)[O-] (centres undefined) [Dinotefuran]
A) 141.96

Q) Report collision cross section, nothing else, for this molecule: COc1ccc(CCN(C)CCCC(C#N)(c2ccc(OC)c(OC)c2)C(C)C)cc1OC (centres undefined) [Verapamil]
A) 208.22

Q) Quote collision cross section reported for CN1C(=O)CN=C(c2ccccc2)c2cc(Cl)ccc21 [Diazepam] please.
A) 165.95
